Values compiled from patent US20260167959A1.

Measured Fold change in RNA expression between the ON state and the OFF state of individual entries
- System: Renilla luciferase RNA
- method: Barcoded aptazyme variant library screen: un-cleaved Renilla luciferase RNA by barcode read counts, HEK293-T cells
- Type: cell-based
- condition-summary: un-cleaved Renilla luciferase RNA, HEK293-T cells cultured with 1 mM theophylline (ON) over without theophylline (OFF); barcode read counts, triplicate
- From the text: Based on the findings from Example 1, an aptazyme variant library was generated from the T3H48 ribozyme with one of seven variant theophylline aptamers inserted sequentially after each nucleotide of the DNA sequence encoding the T3H48 ribozyme sequence. […] The seven variant theophylline aptamers vary in their communication channels, which are the ribonucleotides of the aptamer that attach to the ribozyme sequence (see, Table 2). […]
measured-attribute: Fold change in RNA expression between the ON state and the OFF state (fold)

1. RA238 (nucleic acid, expressed or natural sequence) DNA: GCGCGTCCTGGATTAGAATACCAGCATCGTCTTGATGCCCTTGGAAGTCTCGCGGAAACGCGTACATCCAGCTGACGAGTCCCAAATAGGACGAAACGCGC ... 1.1
2. RA267 (nucleic acid, expressed or natural sequence) DNA: GCGCGTCCTGGATTCGCGGAAACGCGTACATCCAGCTGACGAGTGGAATACCAGCATCGTCTTGATGCCCTTGGAAGTCCCCCAAATAGGACGAAACGCGC ... 1.0
3. RA039 (nucleic acid, expressed or natural sequence) DNA: GCGCGTCCTGGATTCGCGGAAACGCGTACATCGGAATACCAGCATCGTCTTGATGCCCTTGGAAGTCCCAGCTGACGAGTCCCAAATAGGACGAAACGCGC ... 2.2
4. RA224 (nucleic acid, expressed or natural sequence) DNA: GCGCGTCCTGGATTCGCGGAAACGCGTACATCCAGCTGACGAGTCCCAAATAGAGAATACCAGCATCGTCTTGATGCCCTTGGAAGTCTGACGAAACGCGC ... 1.1
5. RA205 (nucleic acid, expressed or natural sequence) DNA: GCGCGTCCTGGATTCGCGGAAACGCGTACATCCAGCTGACGAGTCCCAAATAGGACGAAACGCGGAATACCAGCATCGTCTTGATGCCCTTGGAAGTCCGC ... 1.2
6. RA127 (nucleic acid, expressed or natural sequence) DNA: GCGCGTCCTGGATTCGCGGAAACGCGTACATCCAGCTGACGAGTCCCAAATAGGACGAAACGCGCCGGAATACCAGCATCGTCTTGATGCCCTTGGAAGTCCGGC ... 1.4
7. RA107 (nucleic acid, expressed or natural sequence) DNA: GCGCGTCCTGGATTCGCGGAAACGCGTACATCCCGGAATACCAGCATCGTCTTGATGCCCTTGGAAGTCCGAGCTGACGAGTCCCAAATAGGACGAAACGCGC ... 1.6
8. RA178 (nucleic acid, expressed or natural sequence) DNA: GCGCGTCCTGGATTCGCGGAAACGCGTACATCCGGAATACCAGCATCGTCTTGATGCCCTTGGAAGTCCAGCTGACGAGTCCCAAATAGGACGAAACGCGC ... 1.3
9. RA072 (nucleic acid, expressed or natural sequence) DNA: GCGCGTCCTGGATTCGCGGAAACGCGTACCGAGAATACCAGCATCGTCTTGATGCCCTTGGAAGTCTCGATCCAGCTGACGAGTCCCAAATAGGACGAAACGCGC ... 1.8
10. RA218 (nucleic acid, expressed or natural sequence) DNA: GCGCGTCCTGGATTCGCGGAAACGCGTACATCCAAGTGATACCAGCATCGTCTTGATGCCCTTGGCAGCACTGCTGACGAGTCCCAAATAGGACGAAACGCGC ... 1.2
11. RA191 (nucleic acid, expressed or natural sequence) DNA: GCGCGTCCTGGATTCGCGGAACGAGAATACCAGCATCGTCTTGATGCCCTTGGAAGTCTCGACGCGTACATCCAGCTGACGAGTCCCAAATAGGACGAAACGCGC ... 1.2
12. RA098 (nucleic acid, expressed or natural sequence) DNA: GCGCGTCCTGGATTCGCGGAAACGCGTACATCCCCGGAATACCAGCATCGTCTTGATGCCCTTGGAAGTCCGGAGCTGACGAGTCCCAAATAGGACGAAACGCGC ... 1.6
13. RA282 (nucleic acid, expressed or natural sequence) DNA: GCGCGTCCTGGATTCGCGAGAATACCAGCATCGTCTTGATGCCCTTGGAAGTCTCGCGGAAACGCGTACATCCAGCTGACGAGTCCCAAATAGGACGAAACGCGC ... 1.0
